Reference for the values: paper PMC4552634

system: P. falciparum stage V gametocytes; parameters: BacTiter-Glo ATP luminescence viability of purified stage V gametocytes in 384-well plates, per cent inhibition versus DMSO; settings: 48 h, 5 µM; inhibitor
The whole screen tested about 13,000 compounds, of which about 3,200 (25%) showed an effect of 50% or more. The list shows a part of the results.
Reported % Inhibition values for the following compounds.
Reported endpoint: % Inhibition (%)

> print(dat)
                                   compound  endpoint.value
1  Cc1cc(F)ccc1C1CCN(CCCCNC(=O)c2ccc(NC(=O)c3ccc(Cl)cc3)cc2)CC1 [TCMDC-138363]            13.4
2  Cc1ccc(C(=O)Nc2ccc(F)cc2)cc1-c1nc(NC2CC(C)(C)NC(C)(C)C2)nc2c1ccc(=O)n2-c1c(F)cccc1F [TCMDC-135391]            95.1
3  CN(Cc1ccc(C#N)cc1)C1CCN(c2cc(NC(=O)c3cccc(F)c3)ccn2)CC1 [TCMDC-134976]          -19.78
4  Cc1cc(C(=O)Nc2ccc(C)c(-c3nc(N(C(=O)c4ccc(F)c(C)c4)C4CCNCC4)nc4c3ccc(=O)n4-c3c(F)cccc3F)c2)ccc1F [TCMDC-135913]           55.46
5  COc1ccc2nc(C)cc(Nc3ccc(Oc4ccc(Cl)c5ccccc45)c(Cl)c3)c2c1 [TCMDC-123856]           5.816
6  CCCOC(=O)c1ccc(OCCCON2C(N)=NC(N)=NC2(C)C)cc1 [TCMDC-131715]           8.227
7  Cc1ccc(NC(=O)Nc2ccc(Cl)cc2)cc1-c1cccc(C(=O)Nc2ccc(F)cc2)c1 [TCMDC-133591]          -12.79

====

Reported % Inhibition values for the following compounds.
system: P. falciparum stage V gametocytes; design: BacTiter-Glo ATP luminescence viability of purified stage V gametocytes in 384-well plates, per cent inhibition versus DMSO; settings: 48 h, 5 µM; inhibitor
The campaign covered roughly 13,000 compounds. About 3,200 (25%) showed an effect of 50% or more. Some of the results follow.
Reported endpoint: % Inhibition (%)

> print(dat)
                                    compound  reported.endpoint  unit.spec  endpoint.value
 1  Cc1noc(C)c1-c1cccc(CNCc2cccc(-c3cccc(-c4nc5cccc(C)c5[nH]4)c3)c2)c1.O=C(O)C(F)(F)F [TCMDC-133050]       % Inhibition          %          -47.47
 2  CCC(CC)OC(=O)C(C)c1cccc(C(=O)c2ccccc2)c1 (centres unmarked) [TCMDC-138666]       % Inhibition          %          -7.418
 3  Cc1cccc2nc(-c3ccc(-c4ccc(NC(=O)Nc5cccc(C#N)c5)cc4)s3)[nH]c12 [TCMDC-133189]       % Inhibition          %           17.89
 4  Cc1[nH]c(C)c(-c2ccc(OCc3ccc(F)cc3)nc2)c(=O)c1Br [TCMDC-135657]       % Inhibition          %            60.6
 5  CCOC(=O)CCCc1cc(NC2CCN(C)CC2)nc(Nc2ccc(OC)cc2)n1 [TCMDC-134017]       % Inhibition          %          -45.24
 6  c1ccc(CN2CCC(Nc3ccc(-c4cn[nH]c4-c4ccccn4)nc3)CC2)cc1 [TCMDC-138750]       % Inhibition          %           73.03
 7  Cc1cc(NC(=O)c2ccco2)ccc1OC1CCN(Cc2ccc(F)cc2)CC1 [TCMDC-133749]       % Inhibition          %           42.56
 8  O=c1cc(NCCCNCc2[nH]c3cc(Cl)cc(Cl)c3c2Cn2cccn2)[nH]c2ccccc12 [TCMDC-140152]       % Inhibition          %          -2.677
 9  O=C(/C=C/c1ccc(Cl)cc1Cl)N1CCC(CCN2CCC(c3c[nH]c4ccccc34)CC2)CC1 [TCMDC-139711]       % Inhibition          %           81.98
10  CC(=O)Oc1ccc(C(=O)Oc2ccccc2C#CC#N)cc1OC(C)=O [TCMDC-138111]       % Inhibition          %           22.32
11  O=C(/C=C/c1cc([N+](=O)[O-])ccc1Cl)NC1CCC(CN2CCC(c3c[nH]c4ccccc34)CC2)CC1 (centres unmarked) [TCMDC-139907]       % Inhibition          %          -55.07
12  O=C(C=Cc1ccccc1O)N1CCC(CN2CCC(c3c[nH]c4ccccc34)CC2)CC1 [TCMDC-139912]       % Inhibition          %          -49.08
13  COc1ccc(Nc2nc(NC3CCN(Cc4ccccc4)CC3)cc(-c3ccncc3)n2)cc1 [TCMDC-134021]       % Inhibition          %           -30.5
14  Cn1nc(-c2ccc(NC(=O)Nc3ccc4ccccc4c3)c(F)c2)c2cnc(NCCN3CCOCC3)nc21 [TCMDC-141561]       % Inhibition          %              17
15  CC(C)CNCc1cccc(-c2ccc(CNc3ccc(C(=O)c4ccccc4)cc3)cc2)c1 [TCMDC-140728]       % Inhibition          %           10.94
16  COCC(C)n1c(SCC(=O)Nc2cc(C(F)(F)F)ccc2Cl)nc2ccccc2c1=O (centres unmarked) [TCMDC-125436]       % Inhibition          %            2.32
17  COc1ccccc1NC(=O)Nc1cccc(-c2cccc(-c3nc4ccc(C(F)(F)F)cc4[nH]3)c2)c1 [TCMDC-133205]       % Inhibition          %           10.02
18  CC(C)CNC(=O)c1cncc(-c2ccc(CNCCCc3ccccc3)cc2)c1 [TCMDC-134247]       % Inhibition          %          -10.62
19  Cc1nc2ccc3ccc(CNc4ccc5c(c4)CN([C@@H](CCC(=O)O)C(=O)O)C5=O)cc3c2c(=O)[nH]1 [TCMDC-131928]       % Inhibition          %           20.65
20  c1csc(-c2ccc3c(c2)CC(NCc2c[nH]c4cnccc24)C3)c1 (centres unmarked) [TCMDC-134833]       % Inhibition          %           42.25
21  CCCCCc1cc(O)c2c(c1)OC(C)(C)CC2C1=CCN(Cc2cccnc2)CC1 (centres unmarked) [TCMDC-131417]       % Inhibition          %          -23.46
22  CCOC(=O)CCCCOc1c(OC)cc(Cc2cnc(N)nc2N)cc1OC [TCMDC-137291]       % Inhibition          %           2.332
23  COc1cc(Cc2cnc(NCCN3CCNCC3)nc2N)ccc1OCc1ccc(C(F)(F)F)cc1 [TCMDC-138704]       % Inhibition          %           48.16
24  Cc1ccc(F)cc1S(=O)(=O)N1CCCCC(c2ccc(C(F)(F)F)cc2)=N1 [TCMDC-134531]       % Inhibition          %          -12.63
25  CN(C)CCC(O)(c1ccc(Br)cc1)c1cccnc1 (centres unmarked) [TCMDC-131412]       % Inhibition          %          -6.865
26  Cc1[nH]c(C)c(-c2ccc(OCc3cc(F)cc(F)c3)nc2)c(=O)c1Cl [TCMDC-135676]       % Inhibition          %           67.03
27  CCc1ccc(-c2cnc(N)c3cc(-c4ccnc(N)n4)ccc23)cc1 [TCMDC-134546]       % Inhibition          %           12.63
28  O=C(/C=C/c1cc(F)c(F)cc1F)N1CCC(CN2CCC(c3c[nH]c4ccccc34)CC2)CC1 [TCMDC-140383]       % Inhibition          %          -20.73
29  CC1(C)N=C(N)N=C(N)N1OCCCCCOc1ccccc1 [TCMDC-131319]       % Inhibition          %          -2.033
30  CN(c1ccc(NC(=O)Nc2cc(C(F)(F)F)ccc2F)cc1)c1ccnc(NCCN2CCOCC2)n1 [TCMDC-141590]       % Inhibition          %           51.14
31  O=C(/C=C/c1cc([N+](=O)[O-])ccc1Cl)N1CCC(CCN2CCC(c3c[nH]c4ccccc34)CC2)CC1 [TCMDC-139911]       % Inhibition          %           95.76
32  CC(C)CNCc1ccc(-c2cccc(CN(CCN(C)C)C(=O)NCCc3ccccc3)c2)cc1 [TCMDC-140621]       % Inhibition          %           102.2
